- Test system: MKL-2
- Experimental details: qHTS assay to identify novel small-molecules to repurpose for Merkel cell carcinoma treatment (AID 1296009); further: nearly all actives have a fitted effect of over 60% in size; further: potency means the concentration at half of the fitted maximal effect
- Assay conditions: MCC and control cell lines, CellTiter-Glo viability, 72 h; series mostly up to 46 µM
Records with an inconclusive call do not appear. Activity calls are given as the source filed them. The call rests on the fitted dose curve; in most records, active means well fitted inhibition curve with a large enough effect; inconclusive means small, poorly fitted or top-dose-only effect; inactive means flat fitted curve, though single readings scatter.
Recorded metric: Potency

Molecule: O=Nc1c(-c2c(O)[nH]c3cc(Br)ccc23)[nH]c2ccccc12
Potency: 16.6 µM (active)
//
Molecule: O=C(NCC1CCCCN1)c1cc(OCC(F)(F)F)ccc1OCC(F)(F)F (stereo not given)
Potency: inactive
//
Molecule: CCCc1cc(=O)[nH]c(=S)[nH]1
Potency: inactive
//
Molecule: Oc1ccc(-c2nc(-c3ccc(F)cc3)c(-c3ccncc3)[nH]2)cc1
Potency: 20.9 µM (active)
//
Molecule: CC1Cc2ccccc2N1NC(=O)c1ccc(Cl)c(S(N)(=O)=O)c1 (stereo not given)
Potency: inactive
//
Molecule: Cc1nc(Nc2ncc(C(=O)Nc3c(C)cccc3Cl)s2)cc(N2CCN(CCO)CC2)n1
Potency: inactive
//
Molecule: Cc1c(OCC(F)(F)F)ccnc1CS(=O)c1nc2ccccc2[nH]1 (stereo not given)
Potency: inactive
//
Molecule: C[C@]12CCC(=O)C=C1CC[C@@H]1[C@H]2[C@@H](O)C[C@@]2(C)[C@H]1CC[C@]2(O)C(=O)CO
Potency: inactive
//
Molecule: CCN(CCO)CCCC(C)Nc1ccnc2cc(Cl)ccc12 (stereo not given)
Potency: inactive

Now for the molecule whose Potency we want.
Bench note: what Potency did CCOC(=O)C1=C[C@@H](OC(CC)CC)[C@H](NC(C)=O)[C@@H](N)C1 show?
inactive
